biological target: Thymidine kinase, cytosolic (Homo sapiens, UniProt P04183); test: Inhibition of recombinant TK1-mediated phosphorylation of [CH3-3H]deoxythymidine
Sequence (P04183 whole entry): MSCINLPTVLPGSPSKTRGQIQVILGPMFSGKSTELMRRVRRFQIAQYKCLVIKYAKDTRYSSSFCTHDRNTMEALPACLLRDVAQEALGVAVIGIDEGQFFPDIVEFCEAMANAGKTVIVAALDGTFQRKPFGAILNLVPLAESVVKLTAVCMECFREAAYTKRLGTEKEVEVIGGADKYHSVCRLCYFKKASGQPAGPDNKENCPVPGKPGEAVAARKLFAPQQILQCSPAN
observation-type: IC50 (µM)
Expressed in µM, but write only the number.

// query IC50 value for entry Cc1cn([C@H]2C[C@H](SSCCO)[C@@H](CO)O2)c(=O)[nH]c1=O
18

Which IC50 value belongs to CSS[C@H]1C[C@H](n2cc(C)c(=O)[nH]c2=O)O[C@@H]1CO ?
73

What value of measured IC50 is listed for Cc1cn([C@H]2C[C@H](SSCCN)[C@@H](CO)O2)c(=O)[nH]c1=O ?
10

What does the record list as IC50 for Cc1cn([C@H]2C[C@H](SSC(Cl)(Cl)Cl)[C@@H](CO)O2)c(=O)[nH]c1=O ?
13

---

experiment: Chemical stability assessed as half life at pH 7.2 in methanol-water mixture; type: physicochemical
For each record, write down the corresponding half-life.

Consider the molecule Cc1cn([C@H]2C[C@H](SSCCCCCCO)[C@@H](CO)O2)c(=O)[nH]c1=O and give its measured half-life.
< 5 min

Would you mind telling me what half-life value was observed for Cc1cn([C@H]2C[C@H](SSc3ccc([N+](=O)[O-])cc3)[C@@H](CO)O2)c(=O)[nH]c1=O ?
< 5 min

# input molecule: CSS[C@H]1C[C@H](n2ccc(N)nc2=O)O[C@@H]1CO ; wanted: its half-life
< 5 min

Reference source: ChEMBL document CHEMBL1155006
